- Tested on: HSkMC
- Assay Remarks: cytotoxicity call (relative viability < 0.9)
- Measurement Conditions: 10 µM
Among all 39,000 compounds or so, about 1,500 (3.8%) were called active. What follows is part of a selection rich in actives, with near analogues and random picks from the rest.
Pick one: active, inactive

C[C@H](CO)N1C[C@H](C)[C@@H](CN(C)C(=O)Nc2ccccc2)Oc2ccc(NC(=O)Nc3ccc(C(F)(F)F)cc3)cc2CC1=O	inactive
C[C@@H]1CN([C@H](C)CO)C(=O)c2cc(NS(=O)(=O)c3ccc(Cl)cc3)ccc2O[C@@H](C)CCCCO[C@@H]1CN(C)Cc1ccc(C(=O)O)cc1	inactive
C[C@@H]1CCCCO[C@@H](CN(C)Cc2ccncc2)[C@H](C)CN([C@H](C)CO)C(=O)c2cc(NC(=O)Cc3ccccc3)ccc2O1	inactive
C[C@@H]1CCCCO[C@H](CN(C)C(=O)Nc2ccccc2)[C@@H](C)CN([C@H](C)CO)C(=O)c2cc(NC(=O)c3ccncc3)ccc2O1	inactive
C[C@H]1CN([C@@H](C)CO)C(=O)Cc2cc(NC(=O)Cc3cn(C)c4ccccc34)ccc2O[C@@H]1CN(C)Cc1ccc(C(=O)Nc2ccccc2N)cc1	inactive

Lookup: Give the logged outcome of this assay for the following compound: C[C@@H]1CN([C@H](C)CO)C(=O)Cc2cc(NC(=O)Cc3cn(C)c4ccccc34)ccc2O[C@@H]1CN(C)Cc1ccc(C(=O)Nc2ccccc2N)cc1
Found: inactive

Lookup: Returns: the outcome recorded for C[C@H]1CN([C@@H](C)CO)C(=O)c2cc(NC(=O)CCC(F)(F)F)ccc2O[C@@H]1CN(C)C(=O)Nc1ccc(C(F)(F)F)cc1 in this assay.
Found: inactive

###

- System: HSkMC
- Assay Remarks: cytotoxicity call (relative viability < 0.9)
- Measurement Conditions: 10 µM
The campaign covered roughly 39,000 compounds. About 1,500 (3.8%) were called active. The list comes from a sample in which actives are over-represented; it also holds close analogues and randomly drawn compounds.
Classes to choose from: active, inactive

Study these solved cases before continuing.
N[C@@H](C(=O)N[C@@H]1C(=O)N2C(C(=O)O)=C(Cl)CS[C@H]12)c1ccccc1	inactive
COc1cc2c(NC3CCN(C(C)C)CC3)nc(N3CCC(F)(F)CC3)nc2cc1OCCCN1CCCC1	active
CO[C@@H]1CN(C)C(=O)c2cc(NS(C)(=O)=O)ccc2OC[C@@H](C)N(C(=O)C2CCOCC2)C[C@@H]1C	inactive
C[C@H]1CN([C@@H](C)CO)C(=O)c2c(c3ccccc3n2C)-c2ccccc2CO[C@@H]1CN(C)C(=O)NC1CCCCC1	inactive

Lookup: Query: recorded result category for Cc1noc(C)c1S(=O)(=O)Nc1ccc2c(c1)C(=O)N([C@H](C)CO)C[C@H](C)[C@@H](CN(C)C(=O)Nc1cccc3ccccc13)OCCCC[C@H](C)O2 in this test
Found: active

Lookup: State the result this test recorded for C[C@@H]1O[C@@H](O[C@H]2[C@H](O)[C@@H](O)[C@H](OC[C@H]3O[C@@H](OC(=O)[C@]45CCC(C)(C)C[C@@H]4C4=CC[C@H]6[C@@]7(C)CC[C@H](O[C@H]8OC[C@H](O)[C@H](O)[C@H]8O[C@H]8O[C@@H](C)[C@H](O)[C@@H](O)[C@H]8O)[C@@](C)(CO)[C@@H]7CC[C@@]6(C)[C@]4(C)CC5)[C@H](O)[C@@H](O)[C@@H]3O)O[C@@H]2CO)[C@H](O)[C@H](O)[C@H]1O .
Found: inactive

Lookup: Hi, sorry to bother you, what did the test record for Cc1noc(C)c1S(=O)(=O)Nc1ccc2c(c1)C(=O)N([C@H](C)CO)C[C@H](C)[C@H](CN(C)C(=O)Nc1cccc3ccccc13)OCCCC[C@@H](C)O2 ?
Found: inactive

Lookup: Can you look up the reported call for C[C@H]1O[C@@H](O[C@H]2[C@@H](O)[C@@H](O)[C@@H](O[C@H]3CC[C@]4(C)[C@H]5CC=C6[C@H]7CC(C)(C)[C@H]8C[C@]7(C(=O)O8)[C@@H](O)C[C@]6(C)[C@@]5(C)CC[C@H]4C3(C)C)O[C@@H]2CO)[C@@H](O)[C@@H](O[C@H]2OC[C@@H](O)[C@@H](O)[C@@H]2O)[C@@H]1O for me?
Found: inactive

Lookup: Hello, I am checking results. What call was entered for Cc1noc(C)c1S(=O)(=O)Nc1ccc2c(c1)C(=O)N([C@@H](C)CO)C[C@@H](C)[C@@H](CN(C)C(=O)Nc1cccc3ccccc13)OCCCC[C@H](C)O2 ?
Found: inactive

###

- System: HSkMC
- Assay Remarks: cytotoxicity call (relative viability < 0.9)
- Measurement Conditions: 10 µM
Screen size: about 39,000 compounds; about 1,500 (3.8%) were called active. For the sample, actives were picked, then their nearest neighbours and some compounds at random.
Your reply should match one of these outcome classes. t (active), f (inactive)

These recorded examples may help you get a feel for the data.
COc1ccc2c3c([nH]c2c1)[C@H](CO)N(Cc1ccccc1)C[C@]13CCN(CC1)C(=O)Nc1cccc(c1)F	f
Cc1noc(C)c1S(=O)(=O)Nc1ccc2c(c1)C(=O)N([C@H](C)CO)C[C@H](C)[C@@H](CN(C)Cc1ccc(Cl)c(Cl)c1)OCCCC[C@H](C)O2	f
Cc1noc(C)c1S(=O)(=O)Nc1ccc2c(c1)C(=O)N([C@H](C)CO)C[C@@H](C)[C@@H](CN(C)Cc1ccc(Cl)c(Cl)c1)OCCCC[C@H](C)O2	t
CN1C(=O)CO[C@H]2CN(C(=O)NCc3cccnc3)C[C@@H]21	f
O=C(C[C@@H]1CC=CC[C@@H](Cc2ccc(F)cc2)C(=O)OC[C@H](Cc2c[nH]c3ccccc23)NC1=O)NCCO	f
C[C@@H]1CCCCO[C@@H](CN(C)C(=O)c2ccccc2)[C@@H](C)CN([C@H](C)CO)C(=O)c2cc(NC(=O)NC3CCCCC3)ccc2O1	f
CCS(=O)(=O)N1C[C@]2(CN(C2)C(=O)c2ccc3c(c2)OCO3)c2c(n(c3cc(ccc23)OC)C)[C@@H]1CO	f
COc1ccc2c3c([nH]c2c1)[C@@H](CO)N(Cc1ccccc1)C[C@]13CCN(CC1)C(=O)Nc1cccc(c1)F	f
C[C@H]1CN([C@@H](C)CO)C(=O)c2cc(-c3ccc(C(=O)N(C)C)cc3)cnc2O[C@@H]1CN(C)C(=O)c1ccncc1	f
CO[C@H]1CN(C)C(=O)c2ccc(NC(C)=O)cc2OC[C@@H](C)N(S(=O)(=O)c2cn(C)cn2)C[C@@H]1C	f

Here's the next entry for you.
Lookup: Lab log entry: C[C@H]1CN([C@@H](C)CO)S(=O)(=O)c2ccc(C#Cc3ccncc3)cc2O[C@H]1CN(C)C(=O)Nc1ccc2c(c1)OCO2 — outcome as called in the assay?
Found: f

###

- System: HSkMC (human skeletal muscle cells)
- Assay Remarks: cytotoxicity call (relative viability < 0.9)
- Measurement Conditions: 10 µM
Among all 39,000 compounds or so, about 1,500 (3.8%) were called active. For the sample, actives were picked, then their nearest neighbours and some compounds at random.
Outcome (select one): active, inactive

Solved cases (2 shown):
Cc1noc(C)c1NC(=O)Nc1ccc2c(c1)C(=O)N([C@@H](C)CO)C[C@@H](C)[C@H](CN(C)C(=O)Nc1cccc3ccccc13)OCCCC[C@H](C)O2	inactive
C[C@H](CO)N1C[C@H](C)[C@H](CN(C)S(=O)(=O)c2ccc(Cl)cc2)OCCCC[C@H](C)Oc2ccc(NC(=O)Nc3ccc(C(F)(F)F)cc3)cc2C1=O	inactive

Lookup: What call does the record list for C[C@H]1CN([C@@H](C)CO)C(=O)Cc2cc(NS(=O)(=O)c3ccc(Cl)cc3)ccc2O[C@H]1CN(C)Cc1ccc(Cl)c(Cl)c1 ?
Found: active

Lookup: For C[C@H]1CN([C@@H](C)CO)C(=O)c2cc(NC(=O)Nc3ccc(C(F)(F)F)cc3)ccc2O[C@@H]1CN(C)Cc1ccccc1 , what call appears in the results of this test?
Found: inactive

Lookup: For CN(C)CC#Cc1ccc([C@@H]2[C@H](CO)N3CCCCN(C(=O)CN(C)C)C[C@@H]23)cc1 , which call appears in the assay record?
Found: inactive

Lookup: Query: recorded result category for C[C@H]1CN([C@@H](C)CO)C(=O)c2cc(NC(=O)C3CCCCC3)ccc2O[C@H]1CN(C)Cc1ccc(C(=O)Nc2ccccc2N)cc1 in this test
Found: inactive

Lookup: Dear colleague, could you share the recorded outcome for COc1ccc(NC(=O)N2CCCCN3[C@H](CN(C)C(C)=O)[C@H](c4ccc(C#Cc5ccccc5)cc4)[C@@H]3C2)cc1 when you have a moment?
Found: active

Lookup: Answer briefly: the call reported for Cc1ccc(S(=O)(=O)N(C)C[C@@H]2Oc3ccc(NC(=O)CCCN(C)C)cc3CC(=O)N([C@@H](C)CO)C[C@H]2C)cc1 in this assay.
Found: inactive

Lookup: Look up the recorded call for Cc1noc(C)c1NC(=O)Nc1ccc2c(c1)C(=O)N([C@H](C)CO)C[C@@H](C)[C@H](CN(C)C(=O)Nc1cccc3ccccc13)OCCCC[C@@H](C)O2 in this test.
Found: inactive
